- TESTED_SYSTEM: T1, full-length beta-catenin (UniProt P35222 2-781, limits assumed)
- T1 construct: mature; also called full-length ß-Catenin; β-catenin
- T1 sequence (looked up): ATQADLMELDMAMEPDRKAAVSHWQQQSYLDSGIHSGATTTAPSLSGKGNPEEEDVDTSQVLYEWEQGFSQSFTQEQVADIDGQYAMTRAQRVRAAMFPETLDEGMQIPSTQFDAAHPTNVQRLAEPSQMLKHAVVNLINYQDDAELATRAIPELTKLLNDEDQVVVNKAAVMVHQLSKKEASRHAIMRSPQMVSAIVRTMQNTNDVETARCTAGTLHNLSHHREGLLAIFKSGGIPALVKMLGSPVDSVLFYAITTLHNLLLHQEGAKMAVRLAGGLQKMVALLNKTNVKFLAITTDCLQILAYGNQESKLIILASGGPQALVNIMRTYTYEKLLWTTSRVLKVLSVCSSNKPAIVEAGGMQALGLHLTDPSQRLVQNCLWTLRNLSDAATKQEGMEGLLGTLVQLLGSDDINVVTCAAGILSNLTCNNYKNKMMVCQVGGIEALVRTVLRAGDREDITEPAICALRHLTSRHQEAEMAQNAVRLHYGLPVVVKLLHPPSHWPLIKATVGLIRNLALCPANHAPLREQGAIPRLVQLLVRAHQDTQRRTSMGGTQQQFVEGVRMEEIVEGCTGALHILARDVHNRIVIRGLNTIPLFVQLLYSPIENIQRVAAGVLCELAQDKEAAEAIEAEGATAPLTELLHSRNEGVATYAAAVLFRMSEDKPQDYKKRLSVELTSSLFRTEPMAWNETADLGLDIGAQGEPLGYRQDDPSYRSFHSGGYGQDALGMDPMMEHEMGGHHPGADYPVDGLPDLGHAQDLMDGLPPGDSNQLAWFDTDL
- ASSAY_METHOD_TEXT: competition FP; amino staple (cyclic)
Numbered stars: 1 amine (or outer) side, 2 acyl side, 3 side chain; on linkers, the order of the positions; unused ones are H or OH. Bridge positions count the residues as written; N and C are the ends. Square brackets hold non-standard residues; d marks the D form. R6 = (R)-2-(5-hexenyl)alanine, C=CCCCC[C@@](C)(N[*:1])C(=O)[*:2]; MA = Monomer A (Az), N-Alloc azetidine stapling residue
Property: pEC50; scope: individual binders
Would you please state pEC50, meaning minus log10 of the concentration in mol/L, as a bare number?

**Q:** Param item = Ac-PQ[R6]ILD[MC]HVRRVWR-NH2 (staple 3-7; also: amino staple (-N(R')-), from carbamate staple by metathesis then Pd(0) CO2 extrusion, also called FP-0767 (amino staple)) [FP0767a] ; retrieve measured pEC50.
**A:** 6.15

Would you kindly look at the next entry?
**Q:** Param item = Ac-PQ[R6]ILD[MA]HVRRVWR-NH2 (staple 3-7; also: amino staple: CO2 extruded from carbamate staple with Pd(PPh3)4, also called FP-0735 (amino staple)) [FP0735a] ; retrieve measured pEC50.
**A:** 5.63
